system: ASK2; construct: gene MAP3K6; conditions: concentration: 1 μM, replicates: in singlicate; n = 1;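 further: KINOMEscan kinase panel screen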
MEASURE NAME: %Inh

Task item: What %Inh appears in the records for this compound with ASK2? `COc1cc2ncn(-c3cc(OCc4ccc(S(C)(=O)=O)cc4)c(C(N)=O)s3)c2cc1OC`
Reply: 37%

Task item: Here is the next compound: `Cc1cc(Nc2nc(-c3cccc(C)n3)nc3ccccc23)ccn1`
Reply: 0%

Task item: Moving on to the next compound: COc1cc(Nc2nccc(N3CCC(NC(=O)C4COc5ccccc5O4)C3)n2)cc(OC)c1OC (stereo not shown)
Reply: 5%

Continue with the compound presented below.
Task item: Request - read-out %Inh | tested on ASK2 | compound `Cc1ccc(-c2ccc3c(ccc4sc5c(c43)NC[C@@H](C)N=C5N(C)C)n2)cn1`
Reply: 0%

====

# key: entry, value: %Inh
test system: STK16; conditions: concentration: 1 μM, replicates: in singlicate; n = 1
Hi! Could you send only the number? It should be in %, unit omitted.

Reference set (4 entries):
Task item: Record request: %Inh value, item `Cc1nn2c(=O)cc(N3CCOCC3)nc2n1Cc1cccc(Cl)c1Cl`
Reply: 0

Task item: Also, `COc1ccc(-c2coc3ccc(-c4nnc(SCc5cccc(C#N)c5)o4)cc23)cc1` please.
Reply: 20

Task item: Entry to check: `COc1cc2ncn(-c3cc(OCc4ccncc4Br)c(C(N)=O)s3)c2cc1OC`
Reply: 14

Task item: Now consider `Nc1nc(N)c2nc(-c3ccccc3)[nH]c2n1` .
Reply: 1

Next item in the queue.
Task item: // returns reported %Inh for input `COc1ccc(-c2cc3c(C)nc(N)nc3n([C@H]3CC[C@H](OCCO)CC3)c2=O)cn1`
Reply: 0

====

system: PRKCI; conditions: concentration: 1 μM, replicates: in singlicate; n = 1
# Lookup of reported %Inh keyed by entry
Write the number in % without appending the unit.

Task item: Please give the measured %Inh for this compound: `O=C(Nc1n[nH]c2cc(-c3ccccc3F)ccc12)C1CC1`
Reply: 0

Task item: How about `Cc1ccc(-c2ccc3c(ccc4sc5c(c43)NC[C@@H](C)N=C5N(C)C)n2)cn1` ?
Reply: 0

Task item: `O=C1NC(=O)C(c2ccccc2)=C1Nc1cccc(O)c1` , same question.
Reply: 9

Task item: And then `COc1ccc(-c2cc3c(C)nc(N)nc3n([C@H]3CC[C@H](O)CC3)c2=O)cn1` , what is it?
Reply: 0

Task item: Request: `CCC(=O)c1c(-c2ccccc2)c2cc(Cl)ccc2c(=O)n1Cc1cc(S(C)(=O)=O)n(CC(N)=O)n1`
Reply: 12

Task item: Follow-up item: `Cc1ccccc1COc1cc(-n2cnc3cc(Cl)ccc32)sc1C(N)=O`
Reply: 20

Task item: Thanks! And `Nc1n[nH]c2nnc(-c3ccccc3)c(-c3ccccc3)c12` ?
Reply: 16

Task item: Continue with `CCC(=O)c1c(-c2ccccc2)c2cc(Cl)ccc2c(=O)n1Cc1cc(C(=O)NC2CC2)n(C)n1`
Reply: 0

Further cases:
Task item: So what's the measured %Inh for this one? `COc1cc2ncn(-c3cc(OCc4ccncc4)c(C(N)=O)s3)c2cc1OC`
Reply: 0

Task item: How about this compound: `Cc1nnc(-c2ccc(C)c(-c3ccc(C(=O)O)cc3)c2)o1`
Reply: 0

====

system: PCTK1; construct: gene CDK16; details: concentration: 1 μM, replicates: in singlicate; n = 1
MEASURE NAME: %Inh

Task item: Param item = Cc1nnc(-c2ccc3ncn(-c4ccc(S(C)=O)cc4)c3c2)o1 (stereo not drawn) ; retrieve measured %Inh.
Reply: 0%

Task item: OCCCNc1nccc(-c2c(-c3cccc(C(F)(F)F)c3)nn3cc(C(F)(F)F)ccc23)n1 [GW630813] , same question.
Reply: 11%

Task item: Also need COc1cc2ncn(-c3cc(OCc4ccncc4)c(C(N)=O)s3)c2cc1OC [GSK336313] , thanks.
Reply: 9%

Task item: Nc1ncnc2c1ncn2-c1cccc2ccccc12 [SKF-97184] ?
Reply: 0%

Task item: Same for `Cc1nc(N(C)[C@H]2CN(C(=O)CC#N)CC[C@H]2C)c2cc[nH]c2n1`
Reply: 0%

Task item: Entry to check: CN(C)c1cc(-c2ccc3c(N)n[nH]c3c2)nc(N)n1 [GSK2219329]
Reply: 0%

Task item: How about this molecule: CCS(=O)(=O)c1ccc(OC)c(Nc2ncc(-c3ccc(F)cc3)o2)c1.Cl [GW591947]
Reply: 4%

Task item: Can you handle COc1cc2ncn(-c3cc(OCc4ccncc4Br)c(C(N)=O)s3)c2cc1OC [GW854278] next?
Reply: 0%

# ---- query molecule ----
Task item: Find the recorded %Inh belonging to Nc1n[nH]c2nnc(-c3ccccc3)c(-c3ccccc3)c12 [GW554060] and report it.
Reply: 0%

====

system: NEK9; details: concentration: 1 μM, replicates: in singlicate; n = 1
Each item that follows carries a reported %Inh.
Respond numerically; units are % and should not be typed.

Example molecules with recorded %Inh:
Task item: Would you mind telling me what %Inh value was observed for `COC(=O)c1c(-c2ccccc2)c2cc(Br)ccc2c(=O)n1Cc1ccc(S(C)(=O)=O)cc1` ?
Reply: 6

Task item: Lookup `COc1cc2ncn(-c3cc(OCCCc4ccccc4)c(C(N)=O)s3)c2cc1OC`
Reply: 6

Task item: Next record, please: `CCC(=O)c1c(-c2ccccc2)c2cc(Cl)ccc2c(=O)n1Cc1cc(C(=O)NC2CC2)n(C)n1`
Reply: 0

Task item: // repeat for `C[C@@H]1CC[C@H](C(=O)NC2CCCCC2)CN1c1cc(-c2ccc3c(N)n[nH]c3c2)nc(N)n1` and report
Reply: 25

Task item: And then `O=C(Nc1ccc2c(c1)OCO2)NC1CCN(c2ccnc(NCc3ccc(F)cc3)n2)CC1` , what is it?
Reply: 11

Task item: Next up: `Cc1nc(N(C)[C@H]2CN(C(=O)CC#N)CC[C@H]2C)c2cc[nH]c2n1`
Reply: 0

Further cases:
Task item: Consider the molecule shown here: `CCC(=O)c1c(-c2ccccc2)c2cc(Cl)ccc2c(=O)n1Cc1cc(S(C)(=O)=O)n(CC(F)F)n1` What is its recorded %Inh?
Reply: 0

Task item: # iterate: `Cc1c(Cn2c(C)nn3c(=O)cc(N4CCO[C@H](C)C4)nc23)cccc1C(F)(F)F`
Reply: 0

====

system: SLK; settings: concentration: 1 μM, replicates: in singlicate; n = 1
The following compounds are shown together with reported %Inh values.
Please respond with the number in % and leave the unit unwritten.

Task item: Please look up its %Inh: `O=C1NC(=O)C(c2ccccc2)=C1Nc1cccc(O)c1`
Reply: 51

Task item: Also check `CN(C)c1cc(-c2ccc3c(N)n[nH]c3c2)nc(N)n1`
Reply: 13

Task item: How about this compound: COc1cc(Nc2nccc(N3CCC(NC(=O)C4COc5ccccc5O4)C3)n2)cc(OC)c1OC (stereo not shown)
Reply: 17

Continuing:
Task item: %Inh lookup needed for `COc1cc(OC)cc(-c2cc3cnc(N)nc3nc2NC(=O)NC(C)(C)C)c1` , thanks.
Reply: 0

Task item: Entry to check: `COc1cccc(C2=C(N(C)c3ccccc3)C(=O)NC2=O)c1`
Reply: 13

Task item: Record: `Cl.c1ccc(Cn2cnc3cc(Nc4ncnc5ccccc45)ccc32)cc1`
Reply: 20

====

system: SIK; conditions: concentration: 1 μM, replicates: in singlicate; n = 1
MEASURE NAME: %Inh (%)
Please respond with the number in % and leave the unit unwritten.

See these solved cases before continuing.
Task item: Would you kindly share the measured %Inh for `CCc1nc(-c2cccc(C)c2)c(-c2ccncc2)s1` ?
Reply: 2

Task item: And the next one, COc1cc2nccc(Nc3cccc(Oc4ccccc4)c3)c2cc1OC.Cl [GW284543] ?
Reply: 0

Task item: Item: `CCC(=O)c1c(-c2ccccc2)c2cc(Cl)ccc2c(=O)n1Cc1cc(S(C)(=O)=O)n(CCC(C)(C)O)n1`
Reply: 11

Task item: Same question for O=C(NCCNc1ccnc(Nc2ccc(F)cc2)n1)Nc1ccc2c(c1)OCO2 [GSK1379882] please.
Reply: 0

Task item: Same lookup for `CCCNC(=O)Nc1ccc(Oc2ncnc3ccn(C)c23)cc1` , please.
Reply: 23

New cases:
Task item: Bench note: what %Inh did `Cc1ccc(Oc2ccc(Nc3ncnc4cc[nH]c34)cc2C)cn1` show?
Reply: 21

Task item: Another compound to look at: `COc1ccc(-c2cc3c(C)nc(N)nc3n([C@H]3CC[C@H](O)CC3)c2=O)cn1`
Reply: 0

Task item: Now consider Cl.NS(=O)(=O)c1cccc(Nc2cc(-c3ccc(F)cc3)n[nH]2)c1 [GW824645] .
Reply: 0

Task item: Lookup COc1cccc(C2=C(Nc3cccc(C(=O)O)c3)C(=O)NC2=O)c1 [SB-390770]
Reply: 10

Origin of the recorded values: paper PMC5540273
